Reference for the values: PubChem BioAssay (NCATS)

- assayed-target: Cytochrome P450 3A4 (Homo sapiens)
- method-description: qHTS Assay for Inhibitors and Substrates of Cytochrome P450 3A4 (AID 884); further: nearly all actives have a fitted effect of over 50% in size
- assay-context: recombinant CYP3A4, Luciferin-PPXE luminescence; series mostly up to 57.1 µM
Results filed as inconclusive are left out. The source made the active and inactive calls. The call rests on the fitted dose curve; in most records, active means well fitted inhibition curve with a large enough effect; inconclusive means small, poorly fitted or top-dose-only effect; inactive means no such curve, though single readings can be large or run the other way.
Outcomes you can answer with include only these: 1 for active, 0 for inactive

CC(=O)OCC1=C(C(=O)O)N2C(=O)C(NC(=O)CCCC(N)C(=O)O)C2SC1 (stereo unspecified)
0
COCOc1ccc(Br)cc1C(=O)/C=C\c1ccc2c(c1)OCO2
1
COc1ccc(C2Oc3c(I)c(OC)cc(OC)c3CC2O)cc1OC (stereo unspecified)
1
CC(=O)Oc1c2c(c(CC=C(C)C)c3c1C(=O)C1=CC4CC5C(C)(C)OC(C/C=C(\C)C(=O)O)(C4=O)[C@]15O3)OC(C)(CCC=C(C)C)C=C2 (stereo partly specified)
1
COC(=O)[C@@H]1C[C@@]1(C)[C@@H](NP(=O)(c1ccccc1)c1ccccc1)c1ccccc1
1

Shift focus to the following entry.
Answer briefly: the call reported for [CH3][Hg][Cl] in this assay.
0
